The origin of these recorded values is paper PMC4538536.

Reported AUC(0-t) values for the following molecules.
- Method summary: In vivo pharmacokinetics in infected mice (plasma, LC-MS/MS)
- Design: species or system BALB/c mice
- Condition parameters: BALB/c, mouse, plasma, po, 150 mg/kg, Group 6 quartet BTZ043 37.5/THI 800/SQ109 25/PZA 150 mg/kg oral; steady state, infected mice; read-out: AUC0-24 in Quartet
# include the unit after the value

• CC(=O)Nc1ccc(/C=N/NC(N)=S)cc1 [Thiacetazone] = 68000 ng·h/mL

[ask] Param item = NC(=O)c1cnccn1 [Pyrazinamide] ; retrieve measured AUC(0-t).
[reply] 154000 ng·h/mL

[ask] Same question for CC(C)=CCC/C(C)=C/CNCCNC1C2CC3CC(C2)CC1C3 (stereo not drawn) [SQ109] please.
[reply] 4900 ng·h/mL
